tested on: TXK; settings: concentration: 1 μM, replicates: in singlicate; n = 1;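 note: KINOMEscan kinase panel screen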
// %Inh lookup, one value per entry
observation_type: %Inh (%)

* Cc1ccc(NC(=O)c2cccc(N3CCCCC3)c2)cc1-c1ccc(C(=O)NCC2CC2)cc1 [GSK1917008] | 7
* N#CC1(c2cccc(C(=O)Nc3cccc(Oc4ccc5nc(NC(=O)C6CC6)sc5n4)c3)c2)CC1 | 86
* NCCC(NC(=O)c1cc(Br)c(-c2ccnc3[nH]ccc23)s1)c1ccccc1.O=C(O)C(F)(F)F.O=C(O)C(F)(F)F (stereo not shown) [GSK1307810] | 0
* Cc1cccc(Nc2nc(N[C@H]3CCCC[C@H]3N)ncc2C(N)=O)c1.Cl [GSK986310] | 0
* COc1cccc(-c2nc(-c3ccccc3)[nH]c2-c2ccncc2)c1 [SB-610250] | 14
* Cc1cc(-c2c(-c3ccc(F)cc3)ncn2CCCN2CCOCC2)nc(N)n1 [SB-222517] | 14
* Cl.Cl.NCC(NC(=O)c1cc(-c2cccnc2)c(-c2ccnc3[nH]ccc23)s1)c1ccccc1 (stereo not shown) [GSK1323434] | 0
* O=C1NC(=O)C(c2ccccc2Cl)=C1Nc1cccc(Cl)c1 [SB-342409] | 33
* Cl.N#CCc1ccc(Nc2nccc(Nc3ccc(Oc4ccccc4)cc3)n2)cc1 [GW639905] | 36
* CN1CCN(Cc2ccc(NC(=O)Nc3ccc(N(C)c4ccnc(Nc5ccc(CS(C)(=O)=O)cc5)n4)cc3)cc2)CC1.Cl [GW827654] | 85
* CN(C)CCOc1ccc(-c2cc(-c3ccc(Cl)c(O)c3)c(-c3ccncc3)[nH]2)cc1.Cl.Cl [SB-684387] | 56
* CNc1nccc(-c2ccc3c(N)n[nH]c3c2)n1 [GSK2206003] | 11
* Cc1ccc(C)c(NC(=O)Nc2ccc(C)c(-c3ccc(C(=O)Nc4ccncc4)cc3)c2)c1 [GSK1398473] | 25
